Quick reference: TGI of the listed items.
# System: UACC-62 melanoma
# ASSAY_TEXT: NCI tumour cell line growth inhibition, 48 h
EXPERIMENTAL_READOUT: TGI (µM)

                                   compound  sign_qualifier  test_result
0  CCNCCNc1cc(-c2ccc(C#N)cc2)c(C#N)c2nc3ccccc3n12               =         4.18
1  C=C1C(=O)C23C(O)C1CC[C@H]2C12CCCC(C)(COC(C)=O)[C@H]1[C@H](O)[C@]3(O)OC2 (stereo not given in full)               =         3.16
2  O=C1c2cccc(O)c2C(=O)c2c(OC3OC(CO)C(O)C(O)C3O)cccc21 (stereo not given)               >          100
3  COc1nc2c(N3CCCC3)nc(N3CCNCC3)nc2nc1NCc1ccccc1               =         3.29
4  Cc1cccc(C)c1N1C(=O)C(=O)C(c2nc3ccccc3s2)/C(=N/NC(=O)NN)C1=O (stereo not given)               >          100

* * *

# Test system: SNB-75 CNS
# ASSAY_TEXT: NCI tumour cell line growth inhibition, 48 h

COMPOUND	SYSTEM_TESTED	TGI
CSc1nc2c(ncn2C2OC(CO)C(O)C(O)C2O)c(=O)[nH]1 (stereo not drawn)	SNB-75 CNS	> 100 µM
COC(=O)C1(O)C(c2ccccc2)=NC2(C)CCCC21 (stereo not drawn)	SNB-75 CNS	> 100 µM
COC(=O)[C@H](Cc1ccccc1)NC(=O)N(CCC#N)CCN(C(=O)N[C@@H](Cc1ccccc1)C(=O)OC)c1ccccc1	SNB-75 CNS	45.3 µM
COc1cc(CNc2nc3ccc(C(F)(F)F)cc3nc2-c2ccccc2)cc(OC)c1OC	SNB-75 CNS	61.7 µM
O=C(CC(C(=O)c1ccco1)c1ccco1)c1ccco1 (stereo not drawn)	SNB-75 CNS	> 100 µM
COc1cccc(COc2cc(-n3cnc4ccccc43)sc2C(N)=O)c1	SNB-75 CNS	> 25 µM
COc1ccc(OC)c2sc(N3C(=O)/C(=C/c4cccc([N+](=O)[O-])c4)N=C3c3ccccc3)nc12	SNB-75 CNS	> 100 µM
COC1C(O)C(O[C@H]2CC[C@@]3(C)C(CC[C@@H]4[C@@H]3CC[C@]3(C)[C@@H](C(C)OC5OC(CO)C(O)C(O)C5O)CC[C@]43O)C2)OC(C)C1OC1OC(CO)C(O)C(O)C1O (stereo partly drawn)	SNB-75 CNS	> 100 µM
COc1ccc(-c2cnoc2-c2cc(OC)c3c(c2)OCCO3)cc1	SNB-75 CNS	34.4 µM
Cc1ccc(-n2nc(C(C)(C)C)cc2NC(=O)NCc2cc(F)ccc2Oc2ccc3c(cnn3CCO)c2)cc1	SNB-75 CNS	> 100 µM
O=[N+]([O-])c1ccc2c(c1)c(N=NC(=S)Nc1ccc(Cl)cc1)c(O)n2CN1CCOCC1	SNB-75 CNS	25.8 µM
N#C/C(=C1\SC(N=Nc2ccc(Cl)cc2)C(=O)N1c1ccccc1)c1nc2ccccc2[nH]1 (stereo not drawn)	SNB-75 CNS	65.5 µM
Cc1ccc(C)c(N2C(=O)C(=O)C(c3nc4ccccc4s3)C(=Nc3cccc4c(=O)[nH][nH]c(=O)c34)C2=O)c1 (stereo not drawn)	SNB-75 CNS	> 100 µM
COc1nc2c(N3CCCC3)nc(N3CCNCC3)nc2nc1NCc1ccccc1	SNB-75 CNS	4.19 µM
O=C1OC(c2ccccc2)N(C(=O)c2ccccc2)C1Cc1ccc(OCc2ccccc2)cc1 (stereo not drawn)	SNB-75 CNS	> 100 µM
CC(C)/C(Cl)=N/OC(=O)Nc1ccc(OC(F)(F)F)cc1	SNB-75 CNS	29 µM
COc1cc([N+](=O)[O-])c(OC)c2c(Nc3ccc(S(=O)(=O)O)c4cc(S(=O)(=O)O)cc(S(=O)(=O)O)c34)cc(C)nc12	SNB-75 CNS	> 100 µM
COc1ccc(C2Oc3c(c(O)cc4c3[C@H](c3ccc(O)cc3O)[C@H](O)C(c3ccc(O)c(O)c3)O4)C[C@@H]2O)cc1O (stereo partly drawn)	SNB-75 CNS	> 100 µM
